- TARGET: Tyrosine-protein kinase Lck (Homo sapiens)
- Sequence (P06239 whole entry): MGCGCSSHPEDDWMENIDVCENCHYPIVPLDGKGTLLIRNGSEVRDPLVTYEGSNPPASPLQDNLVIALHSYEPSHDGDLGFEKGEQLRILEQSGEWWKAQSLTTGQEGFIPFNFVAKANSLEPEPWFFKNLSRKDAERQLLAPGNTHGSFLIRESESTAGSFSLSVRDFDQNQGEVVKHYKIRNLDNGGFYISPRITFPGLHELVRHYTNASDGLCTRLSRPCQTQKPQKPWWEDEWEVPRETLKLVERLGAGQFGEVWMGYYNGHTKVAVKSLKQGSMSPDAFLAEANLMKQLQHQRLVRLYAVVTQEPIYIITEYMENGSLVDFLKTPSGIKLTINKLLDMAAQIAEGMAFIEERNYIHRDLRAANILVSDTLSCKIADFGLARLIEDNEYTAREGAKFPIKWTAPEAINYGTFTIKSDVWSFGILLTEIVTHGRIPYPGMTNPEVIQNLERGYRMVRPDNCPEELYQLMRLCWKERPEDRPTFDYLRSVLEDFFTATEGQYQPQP
# note: exactly 100 nM is not below, so it is -1; use 1 for IC50 strictly under it

# COMPOUND, CLASSIFICATION
rows = [
    ("CNc1nccc(-c2cccnc2Oc2ccc(Nc3nc4ccccc4[nH]3)c3ccccc23)n1", -1),
    ("CNc1nccc(-c2cccnc2Oc2ccc(Nc3nc4ccncc4[nH]3)c3ccccc23)n1", -1),
    ("CNc1nccc(-c2cccnc2Oc2ccc(Nc3nc4cc(C(F)(F)F)ccc4[nH]3)c3ccccc23)n1", -1),
    ("CN1CCCC1CCNc1nccc(-c2cccnc2Oc2ccc(Nc3nc4ccccc4[nH]3)c3ccccc23)n1 (stereo not drawn)", -1),
    ("CNc1nccc(-c2cccnc2Oc2ccc(Nc3nc4ccccc4o3)c3ccccc23)n1", 1),
    ("CNc1nccc(-c2cccnc2Oc2ccc(Nc3nc4ccccc4s3)c3ccccc23)n1", 1),
    ("CNc1nccc(-c2cccnc2Oc2ccc(NC(=O)NC(C)(C)C)c3ccccc23)n1", -1),
    ("CCN1CCC(CNc2nccc(-c3cccnc3Oc3ccc(Nc4nc5ccccc5[nH]4)c4ccccc34)n2)CC1", -1),
]

* * *

pIC50: −log10 of the molar value.
Form: system (Vascular endothelial growth factor receptor 2 (Homo sapiens, UniProt P35968)), quantity (pIC50), values below.

# COMPOUND, pIC50
data = [
    ("CNc1nccc(-c2cccnc2Oc2ccc(NC(=O)NC(C)(C)C)c3ccccc23)n1", 5.65),
    ("CN1CCCC1CCNc1nccc(-c2cccnc2Oc2ccc(Nc3nc4ccccc4[nH]3)c3ccccc23)n1 (centres undefined)", 5.69),
    ("CCN1CCC(CNc2nccc(-c3cccnc3Oc3ccc(Nc4nc5ccccc5[nH]4)c4ccccc34)n2)CC1", 5.76),
    ("CNc1nccc(-c2cccnc2Oc2ccc(Nc3nc4ccncc4[nH]3)c3ccccc23)n1", 5.20),
]

* * *

- TARGET: Vascular endothelial growth factor receptor 2 (Homo sapiens, UniProt P35968)
- Sequence (P35968 whole entry): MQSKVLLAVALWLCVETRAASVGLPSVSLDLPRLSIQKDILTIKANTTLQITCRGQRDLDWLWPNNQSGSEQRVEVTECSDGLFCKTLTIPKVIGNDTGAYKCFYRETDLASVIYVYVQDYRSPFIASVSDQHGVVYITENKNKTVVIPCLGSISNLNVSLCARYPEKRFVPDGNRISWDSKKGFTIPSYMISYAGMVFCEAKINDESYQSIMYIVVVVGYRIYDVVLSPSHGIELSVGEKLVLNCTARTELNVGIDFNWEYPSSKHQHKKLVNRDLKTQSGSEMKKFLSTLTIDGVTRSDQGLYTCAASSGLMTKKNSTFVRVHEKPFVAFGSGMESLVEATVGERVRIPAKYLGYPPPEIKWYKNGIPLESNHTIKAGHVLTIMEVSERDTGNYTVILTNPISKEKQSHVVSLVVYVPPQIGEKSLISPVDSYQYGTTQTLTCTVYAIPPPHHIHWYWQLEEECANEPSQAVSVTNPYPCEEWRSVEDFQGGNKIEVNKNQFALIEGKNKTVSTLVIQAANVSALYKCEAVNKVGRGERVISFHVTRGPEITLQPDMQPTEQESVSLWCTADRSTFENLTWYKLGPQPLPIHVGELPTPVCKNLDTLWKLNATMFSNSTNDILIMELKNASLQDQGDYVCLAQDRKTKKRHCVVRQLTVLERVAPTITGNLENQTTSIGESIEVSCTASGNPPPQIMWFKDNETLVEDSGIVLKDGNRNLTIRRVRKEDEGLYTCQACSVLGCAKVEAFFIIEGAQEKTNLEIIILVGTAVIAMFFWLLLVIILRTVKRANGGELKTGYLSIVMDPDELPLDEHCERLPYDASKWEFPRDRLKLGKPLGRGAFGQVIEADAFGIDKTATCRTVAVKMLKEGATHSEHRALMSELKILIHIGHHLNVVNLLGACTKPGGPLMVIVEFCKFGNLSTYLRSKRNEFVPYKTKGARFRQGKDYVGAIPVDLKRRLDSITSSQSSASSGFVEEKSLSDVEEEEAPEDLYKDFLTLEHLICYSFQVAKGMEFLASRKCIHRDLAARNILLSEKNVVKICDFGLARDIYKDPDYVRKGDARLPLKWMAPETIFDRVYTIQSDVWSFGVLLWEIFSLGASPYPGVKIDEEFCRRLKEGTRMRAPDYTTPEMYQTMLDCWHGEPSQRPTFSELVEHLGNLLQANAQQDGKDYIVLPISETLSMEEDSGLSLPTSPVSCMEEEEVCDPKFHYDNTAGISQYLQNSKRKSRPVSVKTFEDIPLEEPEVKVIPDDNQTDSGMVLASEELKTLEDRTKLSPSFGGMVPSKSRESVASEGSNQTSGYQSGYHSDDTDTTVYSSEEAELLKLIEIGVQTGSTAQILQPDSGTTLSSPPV
- ASSAY_EXPLANATION: Inhibition of KDR at 1 uM relative to control; values are per cent of control
Parameter threshold = 60%. Response is Fulfilled when residual activity meets or exceeds it, else Not fulfilled.

# COMPOUND, CLASSIFICATION
rows = [
    ("CN(C)CC(C)(C)CNc1nccc(-c2cccnc2Oc2ccc(Nc3nc4ccccc4[nH]3)c3ccccc23)n1", "Fulfilled"),
    ("CNc1nccc(-c2cccnc2Oc2ccc(Nc3nc4ccccc4[nH]3)c3ccccc23)n1", "Not fulfilled"),
    ("CNc1nccc(-c2cccnc2Oc2ccc(NC(=O)Nc3ccccc3)c3ccccc23)n1", "Not fulfilled"),
    ("CNc1nccc(-c2cccnc2Oc2ccc(Nc3nc4ccc(C(F)(F)F)cc4[nH]3)c3ccccc23)n1", "Not fulfilled"),
    ("CCN1CCC(CNc2nccc(-c3cccnc3Oc3ccc(Nc4nc5ccccc5[nH]4)c4ccccc34)n2)CC1", "Fulfilled"),
    ("CNc1nccc(-c2cccnc2Oc2ccc(Nc3nc4ccncc4[nH]3)c3ccccc23)n1", "Fulfilled"),
    ("CNc1nccc(-c2cccnc2Oc2ccc(NC(=O)NC(C)(C)C)c3ccccc23)n1", "Fulfilled"),
    ("CNc1nccc(-c2cccnc2Oc2ccc(Nc3nc4ccccc4o3)c3ccccc23)n1", "Not fulfilled"),
    ("CNc1nccc(-c2cccnc2Oc2c(C)cc(Nc3nc4ccccc4[nH]3)c3ccccc23)n1", "Fulfilled"),
    ("CN1CCCC1CCNc1nccc(-c2cccnc2Oc2ccc(Nc3nc4ccccc4[nH]3)c3ccccc23)n1 (stereo unspecified)", "Fulfilled"),
    ("CNc1nccc(-c2cccnc2Oc2ccc(Nc3nc4ccccc4s3)c3ccccc23)n1", "Not fulfilled"),
]

* * *

- ASSAY_EXPLANATION: Selectivity ratio of IC50 for KDR to IC50 for Tie2

# COMPOUND_SMILES, Ratio IC50
rows = [
    ("CNc1nccc(-c2cccnc2Oc2ccc(Nc3nc4ccc(C(F)(F)F)cc4[nH]3)c3ccccc23)n1", 3),
    ("CN(C)CC(C)(C)CNc1nccc(-c2cccnc2Oc2ccc(Nc3nc4ccccc4[nH]3)c3ccccc23)n1", 123),
    ("CNc1nccc(-c2cccnc2Oc2ccc(Nc3nc4ccccc4o3)c3ccccc23)n1", 2),
    ("CNc1nccc(-c2cccnc2Oc2ccc(NC(=O)Nc3ccccc3)c3ccccc23)n1", 7),
    ("CNc1nccc(-c2cccnc2Oc2ccc(Nc3nc4ccccc4[nH]3)c3ccccc23)n1", 998),
    ("CNc1nccc(-c2cccnc2Oc2ccc(Nc3nc4ccncc4[nH]3)c3ccccc23)n1", 74),
    ("CNc1nccc(-c2cccnc2Oc2ccc(Nc3nc4ccccc4s3)c3ccccc23)n1", 2),
    ("CCN1CCC(CNc2nccc(-c3cccnc3Oc3ccc(Nc4nc5ccccc5[nH]4)c4ccccc34)n2)CC1", 1750),
    ("CNc1nccc(-c2cccnc2Oc2ccc(NC(=O)NC(C)(C)C)c3ccccc23)n1", 10),
]

* * *

Ratio IC50 overview
- ASSAY_EXPLANATION: Selectivity ratio of IC50 for Aurora B to IC50 for Tie2

# MOLECULE, Ratio IC50
measured = [
    ("CCN1CCC(CNc2nccc(-c3cccnc3Oc3ccc(Nc4nc5ccccc5[nH]4)c4ccccc34)n2)CC1", 100),
    ("CNc1nccc(-c2cccnc2Oc2ccc(NC(=O)Nc3ccccc3)c3ccccc23)n1", 4),
    ("CN1CCCC1CCNc1nccc(-c2cccnc2Oc2ccc(Nc3nc4ccccc4[nH]3)c3ccccc23)n1 (stereo not given)", 21),
    ("CNc1nccc(-c2cccnc2Oc2ccc(Nc3nc4ccncc4[nH]3)c3ccccc23)n1", 5),
    ("CNc1nccc(-c2cccnc2Oc2ccc(Nc3nc4ccccc4o3)c3ccccc23)n1", 3),
    ("CNc1nccc(-c2cccnc2Oc2ccc(Nc3nc4ccc(C(F)(F)F)cc4[nH]3)c3ccccc23)n1", 2),
    ("CNc1nccc(-c2cccnc2Oc2ccc(Nc3nc4ccccc4s3)c3ccccc23)n1", 3),
    ("CN(C)CC(C)(C)CNc1nccc(-c2cccnc2Oc2ccc(Nc3nc4ccccc4[nH]3)c3ccccc23)n1", 9),
    ("CNc1nccc(-c2cccnc2Oc2ccc(Nc3nc4ccccc4[nH]3)c3ccccc23)n1", 7),
    ("CNc1nccc(-c2cccnc2Oc2ccc(NC(=O)NC(C)(C)C)c3ccccc23)n1", 0.1),
]

* * *

Ratio IC50 overview
- ASSAY_EXPLANATION: Selectivity ratio of IC50 for LCK to IC50 for Tie2

# COMPOUND, Ratio IC50
rows = [
    ("CNc1nccc(-c2cccnc2Oc2ccc(NC(=O)NC(C)(C)C)c3ccccc23)n1", 19),
    ("CNc1nccc(-c2cccnc2Oc2ccc(Nc3nc4ccc(C(F)(F)F)cc4[nH]3)c3ccccc23)n1", 5),
    ("CNc1nccc(-c2cccnc2Oc2ccc(Nc3nc4ccccc4o3)c3ccccc23)n1", 2),
    ("CNc1nccc(-c2cccnc2Oc2ccc(NC(=O)Nc3ccccc3)c3ccccc23)n1", 9),
    ("CNc1nccc(-c2cccnc2Oc2ccc(Nc3nc4ccccc4[nH]3)c3ccccc23)n1", 211),
    ("CN1CCCC1CCNc1nccc(-c2cccnc2Oc2ccc(Nc3nc4ccccc4[nH]3)c3ccccc23)n1 (stereo not given)", 120),
    ("CCN1CCC(CNc2nccc(-c3cccnc3Oc3ccc(Nc4nc5ccccc5[nH]4)c4ccccc34)n2)CC1", 387),
    ("CN(C)CC(C)(C)CNc1nccc(-c2cccnc2Oc2ccc(Nc3nc4ccccc4[nH]3)c3ccccc23)n1", 123),
    ("CNc1nccc(-c2cccnc2Oc2ccc(Nc3nc4ccccc4s3)c3ccccc23)n1", 2),
    ("CNc1nccc(-c2cccnc2Oc2ccc(Nc3nc4ccncc4[nH]3)c3ccccc23)n1", 56),
]

* * *

residual activity overview
- TARGET: Angiopoietin-1 receptor (Homo sapiens)
- Sequence (Q02763 whole entry): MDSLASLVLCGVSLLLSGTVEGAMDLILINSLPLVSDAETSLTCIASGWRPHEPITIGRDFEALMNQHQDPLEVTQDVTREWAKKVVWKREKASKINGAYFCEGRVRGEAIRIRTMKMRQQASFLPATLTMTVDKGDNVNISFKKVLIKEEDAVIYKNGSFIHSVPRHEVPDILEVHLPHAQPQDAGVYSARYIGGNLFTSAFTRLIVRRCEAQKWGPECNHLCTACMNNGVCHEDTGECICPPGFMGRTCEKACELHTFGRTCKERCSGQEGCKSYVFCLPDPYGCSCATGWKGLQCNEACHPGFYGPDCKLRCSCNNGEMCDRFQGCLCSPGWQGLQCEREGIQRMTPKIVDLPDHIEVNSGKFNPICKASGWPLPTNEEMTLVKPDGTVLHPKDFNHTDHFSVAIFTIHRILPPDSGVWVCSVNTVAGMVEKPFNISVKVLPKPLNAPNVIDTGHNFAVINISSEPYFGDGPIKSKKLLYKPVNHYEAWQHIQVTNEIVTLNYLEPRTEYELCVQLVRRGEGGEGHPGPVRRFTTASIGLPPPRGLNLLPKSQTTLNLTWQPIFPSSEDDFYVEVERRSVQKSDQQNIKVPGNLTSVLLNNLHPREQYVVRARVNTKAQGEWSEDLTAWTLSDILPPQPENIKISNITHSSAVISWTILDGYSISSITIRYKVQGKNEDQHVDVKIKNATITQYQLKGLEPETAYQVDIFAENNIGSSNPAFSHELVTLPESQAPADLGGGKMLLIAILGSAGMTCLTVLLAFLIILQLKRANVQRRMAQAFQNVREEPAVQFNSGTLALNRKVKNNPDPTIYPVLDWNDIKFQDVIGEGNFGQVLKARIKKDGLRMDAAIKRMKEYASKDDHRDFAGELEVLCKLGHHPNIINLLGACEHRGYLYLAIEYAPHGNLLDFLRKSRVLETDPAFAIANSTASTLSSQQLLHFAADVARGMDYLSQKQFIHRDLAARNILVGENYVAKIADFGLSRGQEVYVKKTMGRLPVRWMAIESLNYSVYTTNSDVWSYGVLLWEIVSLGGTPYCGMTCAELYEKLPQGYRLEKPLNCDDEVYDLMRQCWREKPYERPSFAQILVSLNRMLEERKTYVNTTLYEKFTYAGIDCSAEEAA
- ASSAY_EXPLANATION: Inhibition of Tie2 at 1 uM relative to control; values are per cent of control
PARAMETER: residual activity (%)

# COMPOUND, VALUE_OBSERVED
records = [
    ("CNc1nccc(-c2cccnc2Oc2ccc(Nc3nc4ccccc4[nH]3)c3ccccc23)n1", 0),
    ("CN1CCCC1CCNc1nccc(-c2cccnc2Oc2ccc(Nc3nc4ccccc4[nH]3)c3ccccc23)n1 (stereo unspecified)", 0),
    ("CNc1nccc(-c2cccnc2Oc2ccc(Nc3nc4ccccc4s3)c3ccccc23)n1", 4),
    ("CNc1nccc(-c2cccnc2Oc2ccc(Nc3nc4ccncc4[nH]3)c3ccccc23)n1", 8),
    ("CNc1nccc(-c2cccnc2Oc2ccc(NC(=O)NC(C)(C)C)c3ccccc23)n1", 18),
    ("CN(C)CC(C)(C)CNc1nccc(-c2cccnc2Oc2ccc(Nc3nc4ccccc4[nH]3)c3ccccc23)n1", 8),
    ("CCN1CCC(CNc2nccc(-c3cccnc3Oc3ccc(Nc4nc5ccccc5[nH]4)c4ccccc34)n2)CC1", 0),
    ("CNc1nccc(-c2cccnc2Oc2ccc(Nc3nc4ccc(C(F)(F)F)cc4[nH]3)c3ccccc23)n1", 3),
    ("CNc1nccc(-c2cccnc2Oc2ccc(NC(=O)Nc3ccccc3)c3ccccc23)n1", 1),
    ("CNc1nccc(-c2cccnc2Oc2ccc(Nc3nc4ccccc4o3)c3ccccc23)n1", 2),
    ("CNc1nccc(-c2cccnc2Oc2c(C)cc(Nc3nc4ccccc4[nH]3)c3ccccc23)n1", 0),
]
